fluorescence intensity: recorded values
# system: T1, CTLA4 antigen on the surface of 293F-CTLA4 host cells (UniProt P16410 36-223, limits assumed)
# T1 construct: whole, on cells
# T1 sequence (looked up): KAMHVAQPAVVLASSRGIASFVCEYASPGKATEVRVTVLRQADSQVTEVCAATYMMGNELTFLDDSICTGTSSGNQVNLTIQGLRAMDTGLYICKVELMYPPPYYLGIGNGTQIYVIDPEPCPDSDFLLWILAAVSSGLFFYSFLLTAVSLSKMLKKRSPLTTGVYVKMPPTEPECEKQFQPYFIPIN
# assayInfo: flow cytometry, 293F-CTLA4 cells; antibody 0.001 nM
// print number alone

// worked examples, fluorescence intensity included
8D2 recombinant antibody, 8D2(Re) (antibody, V domains shown) VH: EVKLDETGGGLVQPGRPMKLSCVASGFTFSDNWMNWVRQSPEKGLEWLAQIRNKPYNYETYYSDSVKGRFTISRDDSKSSVYLQMNNLRGEDMGIYYCTAQFAYWGQGTLVTVSA VL: DIQMTQSPASLSASVGETVTITCGTSENIYGGLNWYQRKQGKSPQLLIFGATNLADGMSSRFSGSGSGRQYSLKISSLHPDDVATYYCQNVLRSPFTFGSGTKLEI
24.6
monoclonal antibody 8D2 (antibody, V domains shown, Murine antibody purified from hybridoma supernatant; also called mAb 8D2; antibody secreted by the CTLA4-8D2 hybridoma cell line LT001) VH: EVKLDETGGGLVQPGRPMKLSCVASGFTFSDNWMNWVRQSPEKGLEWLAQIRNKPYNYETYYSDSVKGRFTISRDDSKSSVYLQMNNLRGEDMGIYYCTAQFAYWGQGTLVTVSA VL: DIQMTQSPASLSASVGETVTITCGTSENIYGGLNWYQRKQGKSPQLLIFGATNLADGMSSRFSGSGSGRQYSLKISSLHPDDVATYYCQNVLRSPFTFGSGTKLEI
7.6
humanized antibody 8D2H1L1 (antibody, V domains shown) VH: EVQLVESGGGLVQPGGSMRLSCAASGFTFSDNWMNWVRQAPGKGLEWLAQIRNKPYNYETYYSDSVKGRFTISRDDSKNSVYLQMNSLKTEDTGVYYCTAQFAYWGQGTLVTVSS VL: DIQMTQSPSSLSASVGDRVTITCRTSENIYGGLNWYQRKQGKSPKLLIYGATNLASGMSSRFSGSGSGTDYTLKISSLHPDDVATYYCQNVLRSPFTFGSGTKLEIK
10.8

Ask: Dear colleague, I am looking for the recorded fluorescence intensity of the following binder: humanized antibody 8D2H3L3 (antibody, V domains shown) VH: EVQLVESGGGLVQPGGSLRLSCAASGFTFSDNWMNWVRQAPGKGLEWVAQIRNKPYNYETEYAASVKGRFTISRDDSKNSAYLQMNSLKTEDTAVYYCTAQFAYWGQGTLVTVSS VL: DIQMTQSPSSLSASVGDRVTITCRASENIYGGLNWYQQKPGKAPKLLIYGATSLASGVPSRFSGSGSGTDYTLTISSLQPEDFATYYCQNVLRSPFTFGSGTKLEIK
Reply: 10.8

src = patent US20260166139A1
